The reported numbers originate from patent US11051515B2.

Tested on: ABUTH
Assay: Post-emergence action against ABUTH
Format: in vivo, Abutilon theophrasti
Details: post-emergence, dosage 80 g/ha, visual assessment about 3 weeks after treatment vs untreated controls
As shown below, each of these compounds has a reported Post-emergence action against ABUTH (herbicidal action in percent) value.
Field format: number, assumed %, no unit text.

{"mol": "CCCn1nnnc1NC(=O)c1ccc(C(F)F)c(C(=O)C2CC2)c1SC", "unit-annotation": "%", "observed-measurement": 100}
{"mol": "CCn1nnnc1NC(=O)c1ccc(C(F)(F)F)c(C(=O)C2CCC2)c1SC", "unit-annotation": "%", "observed-measurement": 100}

Attention now turns to another entry.
Per the record, Cn1nnnc1NC(=O)c1ccc(C(F)(F)F)c(C(=O)C2(C)CC2)c1Cl has Post-emergence action against ABUTH (herbicidal action in percent) of 100

----------
System: POLCO
Assay: Post-emergence action against POLCO
Type: in vivo, Polygonum convolvulus
Settings: Fallopia convolvulus, 504 h; post-emergence, dosage 80 g/ha
endpoint-label: pest or weed control at 80 g/ha (%)
Field format: number, assumed %, no unit text.

{"compound": "CCn1nnnc1NC(=O)c1ccc(C(F)(F)F)c(C(=O)C2CC2)c1C [2-18]", "system-tested": "POLCO", "pest or weed control at 80 g/ha [%]": 100}

Per the record, CC(=O)c1c(Cl)ccc(C(=O)Nc2nnnn2C)c1Cl [1-114] has pest or weed control at 80 g/ha of 90

Per the record, CSc1c(C(=O)Nc2nnnn2C)ccc(C(F)(F)F)c1C(=O)C1CC1 [1-60] has pest or weed control at 80 g/ha of 100

Per the record, COc1c(C(=O)Nc2nnnn2C)ccc(C(F)(F)F)c1C(C)=O [1-48] has pest or weed control at 80 g/ha of 90

Per the record, CCn1nnnc1NC(=O)c1ccc(C(F)(F)F)c(C(C)=O)c1Cl [2-137] has pest or weed control at 80 g/ha of 90

Per the record, CC(=O)c1c(S(C)(=O)=O)ccc(C(=O)Nc2nnnn2C)c1C [1-7] has pest or weed control at 80 g/ha of 80

Per the record, CCC(=O)c1c(Cl)ccc(C(=O)Nc2nnnn2C)c1Cl [1-115] has pest or weed control at 80 g/ha of 100

Per the record, COc1c(C(=O)Nc2nnnn2C)ccc(C(F)(F)F)c1C(=O)C1CC1 [1-50] has pest or weed control at 80 g/ha of 100

Per the record, Cn1nnnc1NC(=O)c1ccc(C(F)(F)F)c(C(=O)C(F)F)c1Cl [1-163] has pest or weed control at 80 g/ha of 100

Per the record, CCC(=O)c1c(C(F)F)ccc(C(=O)Nc2nnnn2C)c1Cl [1-165] has pest or weed control at 80 g/ha of 100

----------
Test system: AMARE
Test: Pre-emergence action against AMARE
Format: in vivo, Amaranthus retroflexus
Conditions: Amaranthus retroflexus, 504 h; pre-emergence, dosage 320 g/ha, scored visually after 3 weeks vs untreated controls; read-out: Pre-emergence action against AMARE (herbicidal activity)
From the text: Seeds of monocotyledonous and dicotyledonous weed plants and crop plants are laid out in sandy loam soil in wood-fiber pots and covered with soil. […] The damage to the test plants is scored visually after a test period of 3 weeks by comparison with untreated controls (herbicidal activity in percent (%): 100% activity=the plants have died, 0% activity=like control plants).
endpoint-label: pest or weed control at 320 g/ha (%)
Field format: number, assumed %, no unit text.

{"mol": "Cn1nnnc1NC(=O)c1ccc(C(F)(F)F)c(C(=O)C2CC2)c1Cl", "unit-annotation": "%", "pest or weed control at 320 g/ha": 100}
{"mol": "Cc1c(C(=O)Nc2nnnn2C)ccc(S(C)(=O)=O)c1C(=O)C1CC1", "unit-annotation": "%", "pest or weed control at 320 g/ha": 100}
{"mol": "COc1c(C(=O)Nc2nnnn2C)ccc(C(F)(F)F)c1C(=O)C1CC1", "unit-annotation": "%", "pest or weed control at 320 g/ha": 100}
{"mol": "CC(=O)c1c(Cl)ccc(C(=O)Nc2nnnn2C)c1Cl", "unit-annotation": "%", "pest or weed control at 320 g/ha": 100}

Attention now turns to another entry.
Kindly note: AMARE, Cn1nnnc1NC(=O)c1ccc(Cl)c(C(=O)c2cccs2)c1Cl , pest or weed control at 320 g/ha value reported: 80
